Where do the numbers come from? From the Human Domainome abundance scans (Beltran et al. 2025).

B1: Gamma-crystallin C, residues 91 to 170; numbered along this chain, P07315 (parent)
chain: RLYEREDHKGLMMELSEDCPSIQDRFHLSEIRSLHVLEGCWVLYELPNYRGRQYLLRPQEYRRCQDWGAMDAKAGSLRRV

variants of: B1; assay: abundance fitness (aPCA) (normalised: wild type 0, dead -1); higher = more abundant; growth selection in yeast, the domain comes from the species named; conditions: Homo sapiens
Assay endpoint: abundance fitness
Give a plain numeric answer without units written out.

Recorded abundance fitness, per entry:
• G68K = -0.623
• Y3V = -0.949
• E45M = -0.792

Name the recorded abundance fitness of the item M12P in your answer. -0.038

Name the recorded abundance fitness of the item R57M in your answer. -0.297

Name the recorded abundance fitness of the item G75A in your answer. -0.607

Name the recorded abundance fitness of the item V36I in your answer. -0.013

Name the recorded abundance fitness of the item Q53T in your answer. -0.197

Name the recorded abundance fitness of the item H27N in your answer. 0.075

Name the recorded abundance fitness of the item G39E in your answer. -0.186

Name the recorded abundance fitness of the item G39N in your answer. -0.65
